Test system: Aspergillus fumigatus
Assay: Antimicrobial activity against Aspergillus fumigatus at 1 mg/mL by agar-well diffusion assay
Type: functional
Calls of active or inactive are those of the source. The rule behind the calls is not given here.
Observable: Activity

COC(=O)C1=CC[C@@]23CC[C@@H]([C@@](C)(/C=C/C=C(\C)C(=O)O[C@@H]4O[C@H](CO)[C@@H](O)[C@H](O)[C@H]4O)OC2=O)[C@@]3(OC(C)=O)CC1 | inactive
COC(=O)C1=CC[C@@]23CC[C@@H]([C@@](C)(/C=C/C=C(\C)C(=O)OC)OC2=O)[C@@]3(OC(C)=O)CC1 | inactive
CC(=O)O[C@]12CCC(C(=O)O)=CC[C@]13CC[C@H]2[C@@](C)(/C=C/C=C(\C)C(=O)O)OC3=O [PSEUDOLARIC ACID C2] | inactive
C/C(=C\C=C\[C@@]1(C)OC(=O)[C@]23CC=C(C(=O)O)CC[C@]2(O)[C@H]1CC3)C(=O)O [DEMETHOXYDEACETOXYPSEUDOLARIC ACID B] | inactive

###

Test system: Bacillus subtilis
Assay: Antimicrobial activity against Bacillus subtilis at 1 mg/mL by agar-well diffusion assay
Format: functional, organism-based
The source made the active and inactive calls. No cut-off for these calls is given here.
Observable: Activity

C/C(=C\C=C\[C@@]1(C)OC(=O)[C@]23CC=C(C(=O)O)CC[C@]2(O)[C@H]1CC3)C(=O)O | inactive
COC(=O)C1=CC[C@@]23CC[C@@H]([C@@](C)(/C=C/C=C(\C)C(=O)O)OC2=O)[C@@]3(OC(C)=O)CC1 | inactive
CC(=O)O[C@]12CCC(C(=O)O)=CC[C@]13CC[C@H]2[C@@](C)(/C=C/C=C(\C)C(=O)O)OC3=O | inactive

###

Assay: Toxicity in iv dosed CD1 mouse
Assay type: organism-based
Conditions: in vivo
Observable: LD50

COC(=O)C1=CC[C@@]23CC[C@@H]([C@@](C)(/C=C/C=C(\C)C(=O)O)OC2=O)[C@@]3(OC(C)=O)CC1 [PSEUDOLARIC ACID B] | 423 mg/kg

Just for reference, ChEMBL document CHEMBL1159211 is where these values come from.
